molecular target: Follistatin (Homo sapiens); assay: follistatin binders on small-molecule microarrays, primary screen, biochemical, small-molecule microarray, 635/667 nm fluorescence (AID 1132); details: FST binding, 635 nm fluorescence, higher = more signal
Threshold rule: composite z-score greater than or equal to 1 is Condition met; below that, Condition not met.

Request: Is composite z-score for "COC(=O)[C@@]1(Cc2ccc(OC)cc2)[C@@H]2C(=CC(=O)[C@H]2CC(=O)C(=O)N2CCCC2)CN1C(=O)c1ccccc1" at or above 1?
Result: Condition not met

Request: Is composite z-score for "[N-]=[N+]=NCc1ccccc1[C@@H]1OC(c2ccc(OCCCO)cc2)=N[C@]1(Cc1ccccc1)C(N)=O" at or above 1?
Result: Condition met

Request: Is composite z-score for CC(C)=CCCC(C)=CC(O)C1C=CC2C(=O)N(C)C(=O)C2N1Nc1ccccc1 (configuration not stated) at or above 1?
Result: Condition met

Request: Is composite z-score for "COc1cc2c(cc1OC)CN(C(=O)[C@@H]1[C@H]3C(=O)O[C@H](c4ccccc4)[C@H](c4ccccc4)N3[C@H](c3ccccc3OCCO)[C@@]13C(=O)Nc1ccc(C#CCCO)cc13)CC2" at or above 1?
Result: Condition met

Request: Is composite z-score for "C=C(CCCC)/C(=C/C[C@H](OC(C)=O)c1ccccc1OCCO)c1cc(C(=O)OC)ccc1OC" at or above 1?
Result: Condition not met

Further cases:
Request: Is composite z-score for "C=C(COC)/C(=C/C[C@@H](OC(C)=O)c1ccc(OCCO)cc1)c1cnc2ccccc2c1" at or above 1?
Result: Condition met

Request: Is composite z-score for CN1C=C(C(=O)OCCS(C)(=O)=O)C(C(=O)OCCS(C)(=O)=O)=CC(c2ccc(CO)cc2)=CC1C1CC1 (configuration not stated) at or above 1?
Result: Condition not met

* * *

tested on: Fibrinogen (Alexa647-labelled); experiment: fibrinogen binders on compound microarrays, profiling panel, artefact control for SMM control-protein annotation, biochemical, small-molecule microarray, 635/667 nm fluorescence (AID 1131); settings: fibrinogen-A647 binding fluorescence, higher = more signal;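 also: z-score merges 667 nm fluorescence with per-spot signal-to-noise over triplicate slides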
Threshold rule: composite z-score greater than or equal to 0.9 is met; below that, not met.

Request: Is composite z-score for C=CCC(OC(C)=O)[C@@H]1[C@@H](N(Cc2cccc3ccccc23)C(=O)c2ccc(-c3ccccc3)cc2)c2cc(OCCCO)ccc2N1C(=O)c1ccc2ccccc2c1 (stereo partly specified) at or above 0.9?
Result: not met

Request: Is composite z-score for C[C@H]1NC(=O)[C@@]23C(=O)N[C@@H](Cc4ccccc4)C2[C@H](C)[C@@]2(C)O[C@H]2C3/C=C/C/C=C\CNC(=O)[C@@H]2CCCN2C1=O (stereo partly specified) at or above 0.9?
Result: not met

Request: Is composite z-score for COc1ccc(C(O)C2C=CC3C(=O)N(Cc4ccccc4)C(=O)C3N2n2cnnc2)cc1OCc1ccccc1 (stereo unspecified) at or above 0.9?
Result: not met

Request: Is composite z-score for "COC(=O)[C@@]1(CCS(=O)(=O)c2ccccc2)N=C(c2ccc(OCCCO)cc2)O[C@H]1c1ccccc1CN=[N+]=[N-]" at or above 0.9?
Result: not met

Request: Is composite z-score for "COc1cccc(-c2cccc(=O)o2)c1" at or above 0.9?
Result: not met

Request: Is composite z-score for "COC(=O)c1c(CC[C@@H](CO)NC(=O)NCCn2cc(C3(O)CCCC3)nn2)oc(C(C)=O)c1C(=O)OC" at or above 0.9?
Result: not met

Request: Is composite z-score for "COc1ccc([C@H]2OC[C@@H]3C[C@@H](Cc4ccccc4)C(=O)N32)cc1" at or above 0.9?
Result: not met

Request: Is composite z-score for "CCCC[C@@H]1C[C@H]1[C@@H](NC(=O)c1ccccc1)c1ccc(C(=O)OC)cc1" at or above 0.9?
Result: not met

Request: Is composite z-score for "CCOC(=O)C1=C[C@@H](C(C)(C)C)N(S(=O)(=O)c2ccc(C)cc2)[C@H]1c1ccc(F)cc1" at or above 0.9?
Result: met

Request: Is composite z-score for [N-]=[N+]=Nc1ccccc1[C@H]1OC(c2ccc(OCCCO)cc2)=N[C@@]1(CCS(=O)(=O)c1ccccc1)C(=O)NCC(O)CO (stereo partly specified) at or above 0.9?
Result: met

Request: Is composite z-score for "C=C[C@H](CO[Si](CC)(CC)CC)N(Cc1ccc(OC(C)=O)c(OC)c1)S(=O)(=O)c1ccc(Br)cc1" at or above 0.9?
Result: met

Request: Is composite z-score for "COc1ccc(CCNC(=O)[C@@H]2c3ccccc3C(=O)N(Cc3ccccc3Cl)[C@H]2c2ccc(CO)cc2)cc1" at or above 0.9?
Result: not met

* * *

assay: small-molecule microarray binders of probe aWnt5a, primary screen, biochemical, biotinylated probe, 635/667 nm fluorescence (AID 1113); details: higher = more signal;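 also: score merges 667 nm fluorescence intensity with signal-to-noise per printed feature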
Response field class: enum, chosen by comparing composite z-score against zone 1 = under -0.1, zone 2 = from -0.1 up to 0.06, zone 3 = 0.06 and over

Request: Given "C=C(COC)/C(=C/C[C@@H](OC(C)=O)c1ccc(OCCO)cc1)c1cnc2ccccc2c1" , name the class its composite z-score places it in.
Result: zone 2

Request: Given "COc1ccc(C#Cc2ccc3c(c2)[C@]2(C(=O)N3)[C@H](C(=O)Nc3nc4ccccc4s3)[C@H]3C(=O)O[C@H](c4ccccc4)[C@H](c4ccccc4)N3[C@@H]2c2ccc(O)cc2)cc1" , name the class its composite z-score places it in.
Result: zone 3

Request: Given C=CCC(OC(C)=O)[C@@H]1[C@@H](N(Cc2ccc(-c3ccccc3)cc2)C(=O)c2ccc(-c3ccccc3)cc2)c2cc(OCCCO)ccc2N1C(=O)Cc1ccc2ccccc2c1 (stereo partly specified) , name the class its composite z-score places it in.
Result: zone 2

Request: Given "CC(C)C[C@@H]1NC(=O)[C@@H]2C[C@H](C(=O)NCc3ccc(F)cc3)[C@H](c3cccc(OCCO)c3)N2C1=O" , name the class its composite z-score places it in.
Result: zone 1

Request: Given "COc1ccc([Si](C)(C)[C@H]2[C@H](CCO)O[C@@]3(C(=O)N(Cc4ccc(N(C=O)c5ccccc5)cc4)c4ccccc43)[C@@H]2C)cc1" , name the class its composite z-score places it in.
Result: zone 1

Request: Given "COc1ccc(CCNC(=O)[C@@]2(Sc3ccc(C)cc3)CC(=O)N(C3Cc4ccccc4C3)[C@@H]2c2ccc(CO)cc2I)cc1" , name the class its composite z-score places it in.
Result: zone 2

Request: Given "COCCOC(=O)N1C(=O)[C@@]2(c3cc(C#CCCO)ccc31)[C@H](C(=O)N1CCCCCCC1)[C@H]1C(=O)O[C@H](c3ccccc3)[C@H](c3ccccc3)N1[C@@H]2c1ccc(OCCO)cc1" , name the class its composite z-score places it in.
Result: zone 3

Request: Given "C=C(COC)C(=O)CC[C@@H](OC(C)=O)c1ccc(CO)o1" , name the class its composite z-score places it in.
Result: zone 2

Request: Given "COCCOC(=O)N1C(=O)[C@@]2(c3cc(C#CCC(C(=O)OC)C(=O)OC)ccc31)[C@H](c1ccccc1OCCO)N1[C@H](c3ccccc3)[C@H](c3ccccc3)OC(=O)[C@H]1[C@@H]2C(=O)NC[C@H](O)c1ccccc1" , name the class its composite z-score places it in.
Result: zone 3

Request: Given "COc1ccc(CCNC(=O)[C@@]2(C)c3ccccc3C(=O)N(C(C)C)[C@H]2c2ccc(CO)cc2)cc1" , name the class its composite z-score places it in.
Result: zone 1

* * *

assay: binders of probe aHhip on microarray, primary screen, stem cell growth factor project, biochemical, small-molecule microarray, fluorescence 635/667 (AID 1087); details: higher = more signal;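 also: score merges spot fluorescence at 667nm with spot signal to noise ratio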
// reported composite z-score per item
API note: the answer field is a bare number with no unit suffix.

In the examples that follow, each entry is paired with its recorded composite z-score.
Request: Name the recorded composite z-score for CC(C)C(O)C1C=CC2C(=O)N(c3ccccc3)C(=O)C2N1Nc1ccc([N+](=O)[O-])cc1 (stereo not drawn) .
Result: -0.214

Request: Name the recorded composite z-score for CC1(C)C2C=C(C(O)C3C=CC4C(=O)NC(=O)C4N3Nc3ccc(Cl)cc3Cl)C[C@@H]1C2 (stereo partly drawn) .
Result: -0.104

Request: Name the recorded composite z-score for CC1CC/C=C\[C@H]2OC34C=CCN(C(C)(C)C)C(=O)[C@H]3N(CCO)C(=O)[C@@H]4C2C(=O)O1 (stereo partly drawn) .
Result: -0.0645

Request: Name the recorded composite z-score for "COc1cc(COC(C)=O)ccc1OC(C)=O" .
Result: 0.318

Request: Name the recorded composite z-score for "CN(C)CCCCCCNC(=O)[C@H]1C[C@H]2C(=O)N[C@@H](CCCCN)C(=O)N2[C@H]1c1cccc(OCCO)c1" .
Result: 3.28

Request: Name the recorded composite z-score for "Cc1ccc(S[C@]2(C(=O)O)CC(=O)N(C(C)C)[C@@H]2c2ccc(CO)cc2I)cc1" .
Result: -0.148

Further cases:
Request: Name the recorded composite z-score for "C=C(COC)/C(=C/C[C@@H](OC(=O)c1ccncc1)c1ccc(CO)o1)c1cc(C(=O)OC)ccc1OC" .
Result: -0.0994

Request: Name the recorded composite z-score for "COc1ccc([Si](C)(C)[C@@H]2[C@@H](CCO)O[C@]3(C(=O)N(Cc4ccc(N(C=O)c5ccccc5)cc4)c4ccccc43)[C@H]2C)cc1" .
Result: -0.0994
